# growth per entry
# System: E. coli TESEC Mtb DapB
# Protocol: growth (OD600 after 10 h); higher = more growth (less inhibition)
# Protocol Conditions: arabinose induction (level): High; compound 0.1 mM; raw OD600 reference: median of DMSO wells […], cell-free background 0.041
Where a name gives a salt, the structure may show the parent alone.
Metric: growth

[
  {
    "Compound": "Oc1c(I)cc(Cl)c2cccnc12",
    "Metric": "growth",
    "Observed Measurement": 0.0573
  },
  {
    "Compound": "CC(C)NCC(O)COc1ccc(COCCOC(C)C)cc1 (stereo not drawn) [Bisoprolol fumarate]",
    "Metric": "growth",
    "Observed Measurement": 0.184
  },
  {
    "Compound": "CCCCC1=NC2(CCCC2)C(=O)N1Cc1ccc(-c2ccccc2-c2nnn[nH]2)cc1",
    "Metric": "growth",
    "Observed Measurement": 0.204
  },
  {
    "Compound": "CC(C)CC(=O)N[C@H](C(=O)N[C@H](C(=O)N[C@@H](CC(C)C)[C@@H](O)CC(=O)N[C@@H](C)C(=O)N[C@@H](CC(C)C)[C@@H](O)CC(=O)O)C(C)C)C(C)C",
    "Metric": "growth",
    "Observed Measurement": 0.172
  },
  {
    "Compound": "C#C[C@]1(O)CC[C@H]2[C@@H]3CCc4cc(O)ccc4[C@H]3CC[C@@]21C",
    "Metric": "growth",
    "Observed Measurement": 0.0856
  },
  {
    "Compound": "Cc1ncc([N+](=O)[O-])n1CC(C)O (stereo not drawn)",
    "Metric": "growth",
    "Observed Measurement": 0.2
  },
  {
    "Compound": "N#Cc1ccc(C(c2ccc(C#N)cc2)n2cncn2)cc1",
    "Metric": "growth",
    "Observed Measurement": 0.213
  },
  {
    "Compound": "Clc1ccc(Cn2c(CN3CCCC3)nc3ccccc32)cc1 [Clemizole hydrochloride]",
    "Metric": "growth",
    "Observed Measurement": 0.156
  }
]

---

Measured growth by item
# Tested on: E. coli TESEC Alr+ wild-type control
# Protocol: growth (OD600 after 10 h); higher = more growth (less inhibition)
# Protocol Conditions: compound 0.1 mM; raw OD600 reference: median of DMSO wells 0.49, cell-free background 0.052
Where a name gives a salt, the structure may show the parent alone.

[
  {
    "Compound": "CC(=O)[C@H]1CC[C@H]2[C@@H]3CC=C4C[C@@H](O)CC[C@]4(C)[C@H]3CC[C@]12C [Pregnenolone]",
    "growth": 0.458
  },
  {
    "Compound": "Cc1cnc(NC(=O)C2=C(O)c3ccccc3S(=O)(=O)N2C)s1 [Meloxicam]",
    "growth": 0.461
  },
  {
    "Compound": "CCCCC(C)(O)C/C=C/[C@H]1[C@H](O)CC(=O)[C@@H]1CCCCCCC(=O)OC (mixture of isomers) [Misoprostol]",
    "growth": 0.518
  },
  {
    "Compound": "c1ccc2[nH]c(-c3cscn3)nc2c1 [Tiabendazole]",
    "growth": 0.572
  },
  {
    "Compound": "Cc1cc(CC(=O)O)n(C)c1C(=O)c1ccc(Cl)cc1 [Zomepirac sodium salt]",
    "growth": 0.476
  },
  {
    "Compound": "C[C@H]1[C@H](NC(=O)/C(=N\\OC(C)(C)C(=O)O)c2csc(N)n2)C(=O)N1S(=O)(=O)O [Aztreonam]",
    "growth": 0.385
  },
  {
    "Compound": "COC(=O)[C@H]1[C@H]2C[C@@H]3c4[nH]c5cc(OC)ccc5c4CCN3C[C@H]2C[C@@H](OC(=O)c2cc(OC)c(OC)c(OC)c2)[C@@H]1OC [Reserpine]",
    "growth": 0.467
  },
  {
    "Compound": "C[C@](N)(Cc1ccc(O)c(O)c1)C(=O)O [Methyldopa (L,-)]",
    "growth": 0.508
  },
  {
    "Compound": "CC(C(=O)O)c1ccc(-c2ccccc2)c(F)c1 (configuration not stated) [Flurbiprofen]",
    "growth": 0.486
  },
  {
    "Compound": "O=C(O)Cc1cc(I)c(Oc2ccc(O)c(I)c2)c(I)c1 [Tiratricol, 3,3',5-triiodothyroacetic acid]",
    "growth": 0.0593
  },
  {
    "Compound": "Cc1c(Cl)cccc1Nc1ncccc1C(=O)O [Clonixin Lysinate]",
    "growth": 0.334
  },
  {
    "Compound": "CC(=O)OCC(=O)[C@@]1(O)CC[C@H]2[C@@H]3CCC4=CC(=O)CC[C@]4(C)[C@@]3(F)[C@@H](O)C[C@@]21C [Fludrocortisone acetate]",
    "growth": 0.459
  },
  {
    "Compound": "CN(C)C(=N)NC(=N)N [Metformin hydrochloride]",
    "growth": 0.447
  },
  {
    "Compound": "N#Cc1ccc(C(c2ccc(C#N)cc2)n2cncn2)cc1 [Letrozole]",
    "growth": 0.502
  },
  {
    "Compound": "CCN1CCCC1CNC(=O)c1cc(S(=O)(=O)CC)c(N)cc1OC (configuration not stated) [Amisulpride]",
    "growth": 0.578
  },
  {
    "Compound": "Cc1ccc(-c2ncc(Cl)cc2-c2ccc(S(C)(=O)=O)cc2)cn1 [Etoricoxib]",
    "growth": 0.388
  },
  {
    "Compound": "CN(C)CCC[C@@]1(c2ccc(F)cc2)OCc2cc(C#N)ccc21 [Escitalopram oxalate]",
    "growth": 0.435
  }
]
